Provide the reported pIC50 of each item.
target: PIK3CA (human); assay: Assessment of PIK3CA Kinase Activity
pIC50: −log10 of the molar value.

Solved entries:
{"columns": ["smiles str", "pIC50"],
 "data": [
  ["C[C@H](Nc1nc(N)ncc1-c1ccccn1)c1cc2cccc(Cl)c2c(=O)n1-c1ccccc1", "< 5.00"],
  ["C[C@H](Nc1nc(N)ncc1-c1cncs1)c1cc2cccc(-c3ccc(=O)n(C)c3)c2c(=O)n1-c1ccccc1", "< 5.00"],
  ["C[C@H](Nc1nc(N)ncc1C#N)c1cc2cccc(Cl)c2c(C(=O)NC2CCOCC2)n1", "< 5.00"],
  ["C=CS(=O)(=O)Nc1cccc(-c2cnc(N)nc2N[C@@H](C)c2cc3cccc(Cl)c3c(=O)n2-c2ccccc2)c1", "6.00 to 7.00"]
]}

// next entry
Input: Give the measured pIC50 of `C[C@H](Nc1nc(N)ncc1C#N)c1cc2cccc(-c3cnc4[nH]ccc4c3)c2c(=O)n1-c1ccccc1` .
Output: 6.00 to 7.00

----------
biological target: PIK3CD (Human); test: Assessment of PIK3CD Kinase Activity
pIC50: −log10 of the molar value.
observable: pIC50

Worked cases, pIC50 given:
{"columns": ["smiles str", "target of assay", "pIC50"],
 "data": [
  ["COc1ncc(-c2cnc(N)nc2N[C@@H](C)c2cc3cccc(Cl)c3c(=O)n2-c2ccccc2)s1", "PIK3CD (Human)", "> 7.00"],
  ["C[C@H](Nc1nc(N)ncc1C#N)c1cc2cccc(-c3ccnc(NS(C)(=O)=O)c3)c2c(=O)n1-c1ccccc1", "PIK3CD (Human)", "> 7.00"],
  ["CC(C)C(=O)c1cnc(N)nc1N[C@@H](C)c1cc2cccc(Cl)c2c(=O)n1-c1ccccc1", "PIK3CD (Human)", "6.00 to 7.00"],
  ["Cc1ncc(-c2cccc3cc([C@H](C)Nc4nc(N)ncc4C#N)n(-c4ccon4)c(=O)c23)cn1", "PIK3CD (Human)", "> 7.00"]
]}

Dear colleague, could you please provide pIC50 for the compounds listed below?
1. Cc1ncc(-c2cccc3cc([C@H](C)Nc4nc(N)ncc4C#N)n(C(C)C)c(=O)c23)cn1
2. COc1cc(-c2cccc3cc([C@H](C)Nc4nc(N)ncc4-c4ccccc4)n(-c4ccccc4)c(=O)c23)ccn1
3. C[C@H](Nc1nc(N)ncc1C#N)c1cc2cccc(-c3cncc(F)c3)c2c(=O)n1-c1ccccc1
4. C[C@H](Nc1nc(N)ncc1C#N)c1cc2cccc(Cl)c2c(=O)n1-c1ccc(Cl)cc1

Output:
1: > 7.00; 2: 6.00 to 7.00; 3: > 7.00; 4: > 7.00

----------
Hi there, I'd appreciate the recorded IC50 for every entry that follows.
target: PIK3CD (Human) (UniProt O00329); experiment: Assessment of PIK3CD Kinase Activity
Sequence (O00329 whole entry, looked up): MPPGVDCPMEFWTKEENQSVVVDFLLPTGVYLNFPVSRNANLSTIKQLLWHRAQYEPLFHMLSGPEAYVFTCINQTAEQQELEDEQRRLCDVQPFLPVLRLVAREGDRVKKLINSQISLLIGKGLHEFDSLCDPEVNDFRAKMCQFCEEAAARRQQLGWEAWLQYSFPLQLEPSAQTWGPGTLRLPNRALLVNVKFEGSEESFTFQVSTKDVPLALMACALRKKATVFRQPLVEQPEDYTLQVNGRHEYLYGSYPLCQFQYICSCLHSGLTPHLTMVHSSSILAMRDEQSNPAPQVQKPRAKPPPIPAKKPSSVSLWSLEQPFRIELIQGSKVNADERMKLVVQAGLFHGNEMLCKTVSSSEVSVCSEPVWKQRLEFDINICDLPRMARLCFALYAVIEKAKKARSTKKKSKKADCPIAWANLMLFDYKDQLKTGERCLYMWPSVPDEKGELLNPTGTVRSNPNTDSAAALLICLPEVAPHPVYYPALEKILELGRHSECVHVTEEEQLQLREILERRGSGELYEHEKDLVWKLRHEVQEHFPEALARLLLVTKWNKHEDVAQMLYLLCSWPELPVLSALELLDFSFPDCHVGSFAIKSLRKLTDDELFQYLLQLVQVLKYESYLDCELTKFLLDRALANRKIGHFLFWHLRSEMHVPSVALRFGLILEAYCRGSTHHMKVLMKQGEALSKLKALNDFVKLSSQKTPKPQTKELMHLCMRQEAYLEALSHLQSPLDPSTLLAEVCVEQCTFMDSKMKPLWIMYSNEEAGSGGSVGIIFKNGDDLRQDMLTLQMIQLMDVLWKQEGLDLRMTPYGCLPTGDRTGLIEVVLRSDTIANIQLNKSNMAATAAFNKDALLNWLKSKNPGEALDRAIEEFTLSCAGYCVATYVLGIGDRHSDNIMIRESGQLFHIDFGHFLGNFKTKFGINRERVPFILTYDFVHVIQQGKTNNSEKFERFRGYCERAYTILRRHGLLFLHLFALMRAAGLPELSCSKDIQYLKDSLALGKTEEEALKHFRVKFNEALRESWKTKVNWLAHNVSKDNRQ

Solved entries:
{"columns": ["smiles str", "IC50"],
 "data": [
  ["C[C@H](Nc1nc(N)ncc1C#N)c1cc2cccc(-c3cccc(NS(C)(=O)=O)c3)c2c(=O)n1-c1ccccc1", "< 0.1 µM"],
  ["Cc1nc(-c2cnc(N)nc2N[C@@H](C)c2cc3cccc(Cl)c3c(=O)n2-c2ccccc2)sc1C", "0.1 to 1 µM"],
  ["Cc1cc(N[C@@H](C)c2cc3cccc(Cl)c3c(=O)n2-c2ccccc2)nc(N)n1", "> 10 µM"]
]}

Here are 3 molecules. What values of IC50 were reported for them?
1. C[C@H](Nc1nc(N)ncc1-c1cscn1)c1cc2cccc(-c3ccc(=O)n(C)c3)c2c(=O)n1-c1ccccc1
2. C[C@H](Nc1nc(N)ncc1C#N)c1cc2cccc(-c3cccc(O)n3)c2c(=O)n1-c1ccccc1
3. CCn1cc(-c2cccc3cc([C@H](C)Nc4nc(N)ncc4C#N)n(-c4ccccc4)c(=O)c23)ccc1=O

Output:
1. < 0.1 µM
2. < 0.1 µM
3. < 0.1 µM

Take each entry in turn and give its IC50.
1. C[C@H](Nc1nc(N)ncc1C#N)c1cc2cccc(C#CCCC(=O)N3CCOCC3)c2c(=O)n1-c1ccccc1
2. CSc1ncc(-c2cnc(N)nc2N[C@@H](C)c2cc3cccc(Cl)c3c(=O)n2-c2ccccc2)s1

Output:
1. < 0.1 µM
2. < 0.1 µM

Hello, the source for this data is the Kinase Knowledgebase extract (Sharma et al. 2016), in case you need it.
